These data points were gathered from patent US20140275490A1.

EXPERIMENTAL_SYSTEM: T1, human IL-23R (human, UniProt Q5VWK5 24-629)
T1 sequence: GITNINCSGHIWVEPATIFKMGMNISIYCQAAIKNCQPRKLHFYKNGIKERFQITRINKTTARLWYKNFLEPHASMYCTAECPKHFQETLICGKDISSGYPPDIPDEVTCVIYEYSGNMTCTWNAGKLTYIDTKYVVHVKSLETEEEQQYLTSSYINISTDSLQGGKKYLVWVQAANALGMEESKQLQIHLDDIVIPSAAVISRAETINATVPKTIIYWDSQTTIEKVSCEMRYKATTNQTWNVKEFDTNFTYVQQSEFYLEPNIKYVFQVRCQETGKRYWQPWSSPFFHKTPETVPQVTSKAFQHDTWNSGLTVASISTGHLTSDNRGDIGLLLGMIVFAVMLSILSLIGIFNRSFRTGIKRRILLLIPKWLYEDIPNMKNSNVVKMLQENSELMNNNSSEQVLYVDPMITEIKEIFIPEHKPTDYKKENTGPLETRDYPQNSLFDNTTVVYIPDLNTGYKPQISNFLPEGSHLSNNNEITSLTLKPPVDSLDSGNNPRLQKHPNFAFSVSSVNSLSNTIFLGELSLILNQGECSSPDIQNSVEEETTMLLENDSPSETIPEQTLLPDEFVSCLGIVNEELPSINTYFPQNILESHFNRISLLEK
EXPERIMENTAL_DETAILS: cell-based or functional assay
Parameter IC50, inhibition of human IL-23-inducible Kit-225 cell proliferation: see the listing below.
State the answer as a number, implicitly in ng/mL.

Example binders with recorded IC50, inhibition of human IL-23-inducible Kit-225 cell proliferation:
fully human antibody 30-15 (antibody, human IgG1, kappa, V domains shown, Human Ig gamma1 / human kappa constant regions; also called 30-15 (fully human); fully human 30-15 antibody) VH: QVQLVQSGAEVKKPGASMKVSCKVSGYTLNELSIHWVRQAPGKGLEWMGGFDPEHGETVYAQNFQDRVTLTEDTSTDTSYMGLNNLRSDDTAVYYCAAESYGDYEFWGQGTLVTVSS VL: DIQMTQSPSSVSASVGDRVTITCRASQGINNWLAWYQQKPGKAPKVLIYTASSLQSGVPSRFSGSGSGTDFTLTISSLQPEDFATYYCQQANSHPWTFGQGTKVEIKR	1.4
fully human antibody 32-28 (antibody, human IgG1, kappa, V domains shown, Human Ig gamma1 / human kappa constant regions; also called 32-28 (fully human); fully human 32-28 antibody) VH: QVHLVQSGTEVRKPGASVKVSCKVSGYTLNELAIHWVRQAPGKGLEWMGGFDPEHGEIIYAQRFQGRVTLPEDTSTDTAYLDLFNLRSEDTAVYFCATEAAPFDYWGQGTLVIVSS VL: DIQMTQSPSTLSASVGDRVTITCRASQSLSSWLAWYQQKPGKAPKLLIYKASSLESGVPSRFSGSGSGTDFTLTISSLQPDDFATYYCQQYDIYPRTFGQGTKVEIKR	1.4

Moving on to the next binder.
Q: So what's the measured IC50, inhibition of human IL-23-inducible Kit-225 cell proliferation for this one? fully human antibody 30-18 (antibody, human IgG1, kappa, V domains shown, Human Ig gamma1 / human kappa constant regions; also called 30-18 (fully human); fully human 30-18 antibody) VH: QVQLVQSGAEVKKPGASVKVSCKVSGYTLNELSIHWVRQAPGKGLEWMGGFDPEHSETLYAQNFQDRLTLTEDTSTETACMELNSLRSDDTAVYYCAAESYGDYEFWGQGTLVTVSS VL: DIQMTQSPSSVSASVGDRVTITCRASQDISSWLAWYQQKPGKAPKVLIYTASSLQSGVPSRFSGSGSGTDFTLTISSLQPEDFATYYCQQANSHPWTFGQGTKVEIKR
Ans: 3.3
